Tested on: MDA-MB-231
Test: NCI tumour cell line growth inhibition, 48 h
Active and inactive are the calls of the source. No stated cut-off is given here; in the data, active = GI50 up to about 1.1 µM and inactive = higher.
measurement type: GI50

• O=C1CC(c2ccccc2)n2cccc21 (stereo not drawn) = > 100 µM (inactive)
• COc1ccc(CNc2nc(NCc3ccc(OC)cc3)nc(NC3CCCC3)n2)cc1 = 3.54 µM (inactive)
• CCOP(=O)(CCC(O)CNc1nc(N)nc(Cl)c1/N=N/c1ccc(Cl)cc1)OCC (stereo not drawn) = 19.3 µM (inactive)

====

Tested on: SNB-19
Experiment: NCI tumour cell line growth inhibition, 48 h
Active and inactive are the calls of the source. No stated cut-off is given here; in the data, active = GI50 up to about 1.1 µM and inactive = higher.
GI50 values, listed per item
measurement type: GI50

* Cc1n[nH]c(=O)n1C1CC1 | > 100 µM (inactive)
* CN(C)c1nc(N)c(C#N)c(C#N)c1C#N | > 10 µM (inactive)
* COc1ccc(/C=C(\C(=O)OCC(C)C)c2ccc(OC)c(OC)c2)cc1OC | > 100 µM (inactive)
* CN(C)c1ccc(C(C#N)N2CCCN(C(C#N)c3ccc(N(C)C)cc3)C2c2ccc(N(C)C)cc2)cc1 (configuration not stated) | > 100 µM (inactive)
* COc1ccccc1/[N+]([O-])=C/c1ccccc1OC(=S)S | 99.3 µM (inactive)
* NC(=O)/C=c1/c2ccccc2n2nc3ccccc3c12 | 20.1 µM (inactive)
* N=C(N)SCCc1ccccn1 | > 100 µM (inactive)

====

Test system: HCT-116
Test: NCI tumour cell line growth inhibition, 48 h
Activity calls are given as the source filed them. Rule as the data show it: active = GI50 up to about 1.1 µM and inactive = higher.
Classes used: 1 = active, -1 = inactive

• CN(CC(=O)O)c1ncc2c(n1)-c1ccccc1OC2 = -1
• CC(C)(C)C1=NN=C2c3ccccc3C(=O)C21 (stereo not given) = -1
• CCCCCCCCCCCC1=C(O)C(=O)C(CC2=C(O)C(=O)C(CCCCCCCCCCC)=C(O)C2=O)=C(O)C1=O = -1
• CCOC(=O)C(NC(=O)c1ccccc1)(Nc1ccc(S(=O)(=O)Nc2ccc(OC)nn2)cc1)C(F)(F)F (stereo not given) = -1
• CC1=NC(C)(COC(=O)C2(C)NC(C)(CO)CO2)COC1=O (stereo not given) = -1
• O=C(O)C1(C(=O)O)CC1 = -1
• COC(=O)NN=C1C(C)(C)C(=NNC(=O)OC)C1(C)C = -1
• Nc1ccc(C(=O)CC(N)C(=O)O)cc1O (stereo not given) = -1
• Cc1ccc(S(=O)(=O)n2cc(C#N)c(C#N)c2)cc1 = -1
• CC1CCC2(O)C3(C)CC4(O)OC2(C1O)C1(O)C3(O)C(OC(=O)c2ccc[nH]2)C(O)(C(C)C)C41C (stereo not given) = -1
• CCc1c(Cc2cccc3ccccc23)n2c(nc1=O)SCC2OCCO (stereo not given) = -1
• O=C(CSc1nc2ccccc2c(=O)n1-c1ccccc1)N/N=C1\C(=O)Nc2ccc(F)cc21 = -1
• COC1=CC(=O)C2=C(C[C@@]3(C)C(=C2)C(CO)=CC[C@H]3O)C1=O = -1
• COc1ccc2nc3ccccc3c(NCCCCN(CCCl)CCCl)c2c1 = 1
• CN(/N=C/c1ccccc1O)c1ccc2ccccc2n1 = -1
• C/C1=C\CC[C@@]2(C)O[C@@H]2C[C@@H]2[C@H](C/C(C)=C/CC1)OC(=O)[C@]21CO1 = -1
• CO[C@]12S[C@@H]3CCCC[C@@]31C(C)(C)C(=O)N2c1ccccc1 = -1
• CCC12C[N+]3([O-])CCc4c([nH]c5ccccc45)C(C(=O)OC)(c4cc5c(cc4OC)N(C)C4C(O)(C(=O)OC)C(OC(C)=O)C6(CC)C=CCN7CCC54C76)CC(C3)C1O2 (stereo not given) = 1
• S=C1N=C(Cl)/C(=C\c2ccco2)N1 = -1
• CCOC(=O)c1c(NS(=O)(=O)c2ccccc2)sc2c1CCCC2 = -1
• COC(=O)c1ccc(Oc2nc3ccc(C(F)(F)F)cc3nc2-c2ccccc2)cc1 = -1
• O=c1[nH]c(=O)n(C2CC(O)C(CO)O2)cc1OCCc1ccccc1 (stereo not given) = -1
• COc1ccc(C2C=C(c3ccc4c(c3)OCO4)Oc3c2c(=O)oc2ccccc32)cc1OC (stereo not given) = 1
• CN(C)c1nc(N)c(C#N)c(C#N)c1C#N = -1
• COc1ccc(-c2cc(=O)c3c(O)cc(O)cc3o2)cc1OC = -1

====

GI50 values, listed per item
Test system: PC-3
Experiment: NCI tumour cell line growth inhibition, 48 h
Active and inactive are the calls of the source. Cut-off read from the data, not from the text of the source: active = GI50 up to about 1.1 µM and inactive = higher.
measurement type: GI50

- C=CC(O)(CBr)CCC(Br)C(C)(C)Cl (stereo not given): > 10 µM (inactive)
- CC(CCC(=O)O)[C@H]1CCC2[C@H]3C(CC(=O)[C@@]21C)[C@@]1(C)CCC(O)C[C@H]1C[C@@H]3O (stereo not given in full): > 100 µM (inactive)
- CO/C(N)=C(C#N)/N=C/c1ccc2ccccc2c1: 19.9 µM (inactive)
- Cc1cc2nc(N3C(=O)/C(=C/c4cccc([N+](=O)[O-])c4)N=C3c3ccccc3)sc2cc1C: 17.4 µM (inactive)
- Brc1c(C#CCC2CCCCC2)ccc(C#CCC2CCCCC2)c1Br: > 100 µM (inactive)

====

System: KM12
Assay: NCI tumour cell line growth inhibition, 48 h
Active and inactive are the calls of the source. Rule as the data show it: active = GI50 up to about 1.1 µM and inactive = higher.
measurement type: GI50

- CC(=O)Oc1c(C)cc2c(c1C)C(C)(C)CN2C(=O)C(C)(C)C: > 100 µM (inactive)
- O=C(O)CC1C(=O)OC2C3COC(=O)c4cc(O)c(O)c(O)c4-c4c(cc(O)c(O)c4O)C(=O)OC2C(OC(=O)c2cc(O)c(O)c4c2C1C(O)C(=O)O4)C(OC(=O)c1cc(O)c(O)c(O)c1)O3 (stereo unspecified): 17 µM (inactive)
- Fc1ccc(/C=C2\COCC3=C2NC(=S)NC3c2ccc(F)cc2)cc1 (stereo unspecified): 24.4 µM (inactive)
- O=C1N(c2ccc(Cl)cc2)C(=O)C2(SC=NN2Cc2ccccc2)N1c1ccc(Cl)cc1 (stereo unspecified): > 100 µM (inactive)
- CCOc1ccc2c(ccc(/C=C/c3cc(C)c4cccnc4c3O)[n+]2C)c1: 0.908 µM (active)
- CSc1scc2c1/C(=N/NC(N)=O)CCC2: 86.1 µM (inactive)
- CCOc1cc(/C=C2\N=C(c3ccccc3)N(c3nc4ccccc4s3)C2=O)ccc1O: 48.8 µM (inactive)
- C=CCOC(=O)N1c2ccc(O)cc2[C@@]23O[C@@]24[C@@H]1C#C/C=C\C#C[C@]3(O)C(=O)C[C@@H]4C: > 100 µM (inactive)
- COC(=O)c1cc(-c2ccc3ccccc3c2)nc(O)c1C#N: > 100 µM (inactive)
- Cc1ccc(C2=[N+]([O-])c3ccccc3C2=O)cc1: 17 µM (inactive)
- O=C1Nc2ccccc2/C1=N/NC(=S)Nc1ccc([N+](=O)[O-])cc1: 10.8 µM (inactive)
- CC(=O)O[C@H]1C(=O)O[C@@H]2C[C@H]3C(C)=CC(=O)[C@@H](O)[C@]3(C)[C@H]3[C@@]4(O)OC[C@]32[C@@H]1[C@@H](C)[C@H]4O: 0.0318 µM (active)
- O=C1C(=O)N(c2nccs2)C(=O)C(=O)C1c1nc2ccccc2s1: > 100 µM (inactive)
- CC12CC(C#N)(C#N)C(C#N)(CO1)C(=N)O2 (stereo unspecified): > 100 µM (inactive)
- CS(=O)(=O)Nc1ccc2c(c1)N(S(C)(=O)=O)CC2COS(C)(=O)=O (stereo unspecified): > 100 µM (inactive)
- O=C(O)c1ccccc1NC(=S)c1ccccc1: 50.2 µM (inactive)

====

System: COLO 205
Test: NCI tumour cell line growth inhibition, 48 h
Calls of active or inactive are those of the source. Cut-off read from the data, not from the text of the source: active = GI50 up to about 1.1 µM and inactive = higher.
measurement type: GI50

- Cn1c(=O)c2c(n(C)c1=O)n1c(=O)c3ccccc3nc1n2C: > 100 µM (inactive)
- O=C1c2ccccc2-c2c1c(-c1ccccc1)c1n2C2(C(=O)c3ccccc3C2=O)C2C(=O)N(c3ccccc3)C(=O)C12 (stereo not given): 18.5 µM (inactive)
- C=CCOC(=O)N1c2ccc(O)cc2[C@@]23O[C@@]24[C@@H]1C#C/C=C\C#C[C@]3(O)C(=O)C[C@@H]4C: 36.6 µM (inactive)
- C=CC(O)(CBr)CCC(Br)C(C)(C)Cl (stereo not given): > 10 µM (inactive)
- COC(=O)CCC12CCC(=O)C1[C@@H](C(=O)OC)C[C@H]2C(=O)OC (stereo not given in full): > 100 µM (inactive)
- Cc1c(/N=N/c2ccccc2)c(-c2ccccc2)n(C2OC(CO)C(O)C(O)C2O)c(=S)c1C#N (stereo not given): 5.56 µM (inactive)
- Cc1ccc(-n2cnc3c(N/N=C4\SCC(=O)N4c4ccccc4)ncnc32)cc1: 4.98 µM (inactive)
- Nc1ccc(C(=O)CC(N)C(=O)O)cc1O (stereo not given): > 100 µM (inactive)
- Cc1ccnc2nc(-c3ccc(Cl)cc3)cc(O)c12: 2.33 µM (inactive)
- COc1ccc(C2C=C(c3ccc4c(c3)OCO4)Oc3c2c(=O)oc2ccccc32)cc1OC (stereo not given): 0.361 µM (active)
- O=C(O)CCO/N=C1/C(=C2/C(=O)Nc3ccccc32)Nc2ccccc21: 18.2 µM (inactive)
- CC1=NN(C(=O)CC(=O)Nc2cccc(Cl)c2)C(=O)C1/N=N\c1ccc(S(=O)(=O)c2ccc(/N=N/C3C(=O)N(C(=O)CC(=O)Nc4cccc(Cl)c4)N=C3C)cc2)cc1 (stereo not given): > 100 µM (inactive)
- O=S1(=O)c2cc(S(=O)(=O)n3ccnc3)ccc2NC2=NCCCN21: 18.6 µM (inactive)
- CCCCCCCCCCCC1=C(O)C(=O)C(CC2=C(O)C(=O)C(CCCCCCCCCCC)=C(O)C2=O)=C(O)C1=O: > 100 µM (inactive)
- CCC12C[N+]3([O-])CCc4c([nH]c5ccccc45)C(C(=O)OC)(c4cc5c(cc4OC)N(C)C4C(O)(C(=O)OC)C(OC(C)=O)C6(CC)C=CCN7CCC54C76)CC(C3)C1O2 (stereo not given): 0.423 µM (active)
- CC(=O)n1[nH]c(=O)n(-c2ccccc2)c1=O: > 100 µM (inactive)
- O=C(OCc1ccccc1)n1cccc1: > 100 µM (inactive)
- C=C(C)[C@@H]1CC[C@]2(COC(C)=O)CC[C@]3(C)[C@H](CC[C@@H]4[C@@]5(C)CC[C@H](OC(C)=O)C(C)(C)[C@@H]5CC[C@]43C)[C@@H]12 [BETULIN DIACETATE]: > 50 µM (inactive)
- N#Cc1cnn2c1n[n+]([O-])c1ccc(Cl)cc12: 16.6 µM (inactive)
- Cc1cc(=O)oc2cc(OCc3nc4ccccc4c(=O)[nH]3)ccc12: > 100 µM (inactive)
